Where these numbers come from: patent US20220378791A1

# experimental_target: human JAK2 (a.a. 828-1132) (Homo sapiens, UniProt O60674)
# Construct: JAK2 (a.a. 828-1132); His tag (N); made in house; host or cells: insect cells (baculovirus)
# Sequence (O60674 828-1132): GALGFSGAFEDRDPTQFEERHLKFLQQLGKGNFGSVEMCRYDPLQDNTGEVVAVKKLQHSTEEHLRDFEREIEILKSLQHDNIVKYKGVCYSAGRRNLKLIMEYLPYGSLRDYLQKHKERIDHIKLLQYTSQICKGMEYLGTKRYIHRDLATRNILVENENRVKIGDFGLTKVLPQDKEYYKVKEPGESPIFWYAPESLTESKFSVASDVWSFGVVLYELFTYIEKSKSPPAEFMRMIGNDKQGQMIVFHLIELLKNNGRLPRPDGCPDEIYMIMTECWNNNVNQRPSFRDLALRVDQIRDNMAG
# assay_details: In vitro JAK kinase assay (HTRF), JAK2
# Type: biochemical
# reported_conditions: IC50 ratio, selectivity for JAK1 over JAK2, 1 mM ATP
Below: a set of entries, each annotated with reported JAK2/JAK1.

Illustrative cases are given below, each with its answer.
N#CCC1(n2cc(-c3ncnc4[nH]ccc34)cn2)CN([C@H]2CC[C@@H](Oc3cc(CCO)nc(C(F)(F)F)n3)CC2)C1 [Example 16]: >10
N#CCC1(n2cc(-c3ncnc4[nH]ccc34)cn2)CN([C@H]2CC[C@@H](Oc3cc(CN4CC[C@@H](O)C4)cc(C(F)(F)F)n3)CC2)C1 [Example 19]: >10
CCNCc1cc(O[C@H]2CC[C@@H](N3CC(CC#N)(n4cc(-c5ncnc6[nH]ccc56)cn4)C3)CC2)nc(C(F)(F)F)c1 [Example 17]: >10
N#CC[C@]1(n2cc(-c3ncnc4[nH]ccc34)cn2)C[C@H](N2CCC(Oc3cc(CN4CCC[C@@H]4CO)cc(C(F)(F)F)n3)CC2)C1 [Example 11]: >10
N#CCC(C1CCN(c2nc3cccnc3o2)C1)n1cc(-c2ncnc3[nH]ccc23)cn1 (single isomer, unassigned) [Example 2]: >10
N#CCC1(n2cc(-c3ncnc4[nH]ccc34)cn2)CN(C2CCN(C(=O)c3ccnc(C(F)(F)F)n3)CC2)C1 [Example 7]: >10

Sample N#CCC1(n2cc(-c3ncnc4[nH]ccc34)cn2)CN(C2CCN(C(=O)c3ccnc(C(F)(F)F)c3F)CC2)C1 [Example 5] ; JAK2/JAK1 observed: >10

JAK2/JAK1 reported for this compound N#CCC1(n2cc(-c3ncnc4[nH]ccc34)cn2)CN([C@H]2CC[C@@H](Oc3cc(CN4CC[C@H](O)C4)cc(C(F)(F)F)n3)CC2)C1 [Example 20] : >10
